Where do these numbers come from? They come from ChEMBL document CHEMBL4325886.

# measurement_notes: Cmax in hamster at 10 mg/kg, po
# Format: ADME, organism-based
# Design: dose 10 mg/kg, route oral
# condition_info: cricetinae, in vivo
property_name: Cmax

[
  {
    "smiles_str": "O=C(Nc1ccc(C(F)(F)F)cn1)c1ccc(CN2C(=O)c3ccc(Cl)cc3NC(=O)[C@H]2Cc2ccccn2)cc1Cl",
    "measured_result": "2750 ng/mL"
  }
]

###

# measurement_notes: Metabolic stability in human liver microsomes assessed as parent compound remaining after 15 mins
# Assay type: ADME, Microsome
# condition_info: read-out: Stability

[
  {
    "smiles_str": "Cc1cnc(NC(=O)c2ccc(CN3C(=O)c4ccc(Cl)cc4NC(=O)[C@H]3Cc3ccccn3)cc2C)nc1",
    "remaining at 0.25 h": "74%"
  },
  {
    "smiles_str": "COc1cnc(NC(=O)c2ccc(CN3C(=O)c4ccc(Cl)cc4NC(=O)[C@H]3Cc3ccccn3)cc2C)nc1",
    "remaining at 0.25 h": "82%"
  },
  {
    "smiles_str": "N#Cc1ccc(NC(=O)c2ccc(CN3C(=O)c4ccc(Cl)cc4NC(=O)[C@H]3Cc3ccccn3)cc2Cl)nc1",
    "remaining at 0.25 h": "90%"
  },
  {
    "smiles_str": "COc1cc(CN2C(=O)c3ccc(Cl)cc3NC(=O)[C@H]2Cc2ccccn2)ccc1C(=O)Nc1ccc(F)cn1",
    "remaining at 0.25 h": "94%"
  },
  {
    "smiles_str": "Cc1cc(CN2C(=O)c3ccc(Cl)cc3NC(=O)[C@H]2Cc2ccccn2)ccc1C(=O)Nc1ccc(C(F)(F)F)cn1",
    "remaining at 0.25 h": "100%"
  },
  {
    "smiles_str": "Cn1ccnc1C(=O)c1ccc(CN2C(=O)c3ccc(Cl)cc3NC(=O)[C@H]2Cc2ccccn2)cc1",
    "remaining at 0.25 h": "49%"
  },
  {
    "smiles_str": "Cc1ccc(NC(=O)c2ccc(CN3C(=O)c4ccc(Cl)cc4NC(=O)[C@H]3Cc3ccccn3)cc2Cl)nc1",
    "remaining at 0.25 h": "57%"
  },
  {
    "smiles_str": "Cc1ccnc(C(=O)c2ccc(CN3C(=O)c4ccc(Cl)cc4NC(=O)[C@H]3Cc3ccccn3)cc2)c1",
    "remaining at 0.25 h": "26%"
  }
]

###

# measurement_notes: Metabolic stability in human liver microsomes assessed as parent compound remaining after 15 mins
# Format: ADME, Microsome
# condition_info: read-out: Stability
Entries whose remaining at 0.25 h is below 70% take y; entries at or above 70% take n.

[
  {
    "smiles_str": "Cc1cc(CN2C(=O)c3ccc(Cl)cc3NC(=O)[C@H]2Cc2ccccn2)ccc1C(=O)Nc1ccc(C#N)cn1",
    "group_label": "n"
  },
  {
    "smiles_str": "COc1cnc(NC(=O)c2ccc(CN3C(=O)c4ccc(Cl)cc4NC(=O)[C@H]3Cc3ccccn3)cc2Cl)nc1",
    "group_label": "n"
  },
  {
    "smiles_str": "O=C(c1ccc(CN2C(=O)c3ccc(Cl)cc3NC(=O)[C@H]2Cc2ccccn2)cc1)c1ccccn1",
    "group_label": "y"
  },
  {
    "smiles_str": "O=C(c1ccc(CN2C(=O)c3ccc(Cl)cc3NC(=O)[C@H]2Cc2ccccn2)cc1)c1c[nH]c2cccnc12",
    "group_label": "n"
  },
  {
    "smiles_str": "COc1cc(CN2C(=O)c3ccc(Cl)cc3NC(=O)[C@H]2Cc2ccccn2)ccc1C(=O)Nc1ccc(C(F)(F)F)cn1",
    "group_label": "n"
  }
]
